targetOrTestSystem: human GLP-1 receptor (human, UniProt P43220 24-463)
testName: cell-based or functional assay
No end group written: not given here.
Here, each record is paired with measured EC50 hGLP-1R, cAMP formation data.

- binder: "HSQGTFTSDYSKQLESRRAQEFIEWLLAGGPESGAPPPS-OH [SEQ ID NO: 28]"
  EC50 hGLP-1R, cAMP formation [pM]: 52.4
- binder: "HSQGTFTSDLSKQLESRRAQDFIEWLLATGPESGAPPPS-OH [SEQ ID NO: 35]"
  EC50 hGLP-1R, cAMP formation [pM]: 934
- binder: "HSQGTFTSDISKQLESRRAQEFIEWLLATGPESGAPPPS-OH [SEQ ID NO: 31]"
  EC50 hGLP-1R, cAMP formation [pM]: 941
- binder: "HSQGTFTSDLSKQLESRRAQEFIEWLLAGGPESGAPPPS-OH [SEQ ID NO: 27]"
  EC50 hGLP-1R, cAMP formation [pM]: 80.8
- binder: "HSQGTFTSDYSKQLESRRAQEFIEWLLATGPESGAPPPS-OH [SEQ ID NO: 29]"
  EC50 hGLP-1R, cAMP formation [pM]: 145
- binder: "HSQGTFTSDLSKQLESRRAQEFIEWLLATGPESGAPPPS-OH [SEQ ID NO: 34]"
  EC50 hGLP-1R, cAMP formation [pM]: 363
- binder: "HSQGTFTSDVSKQLESRRAQEFIEWLLATGPESGAPPPS-OH [SEQ ID NO: 30]"
  EC50 hGLP-1R, cAMP formation [pM]: 1180
